# system: T1, CEACAM1 antigen (Sino Biological, Inc.) (UniProt P13688 35-428)
# T1 construct: Bought antigen coated on the ELISA plate; construct not described; also called CEACAM1 (CD66a) antigen; CD66a
# T1 sequence (looked up): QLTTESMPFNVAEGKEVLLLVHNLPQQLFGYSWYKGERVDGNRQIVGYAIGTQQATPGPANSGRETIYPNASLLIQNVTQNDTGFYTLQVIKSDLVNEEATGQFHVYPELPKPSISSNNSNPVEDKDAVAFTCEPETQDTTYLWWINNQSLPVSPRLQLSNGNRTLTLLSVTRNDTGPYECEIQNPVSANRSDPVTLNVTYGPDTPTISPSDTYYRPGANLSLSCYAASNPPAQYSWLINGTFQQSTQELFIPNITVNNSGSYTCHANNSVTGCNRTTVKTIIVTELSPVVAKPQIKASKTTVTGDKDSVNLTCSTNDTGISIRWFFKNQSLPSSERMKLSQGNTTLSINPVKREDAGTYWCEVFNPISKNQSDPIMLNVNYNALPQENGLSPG
# assay-protocol: ELISA, coated CEACAM1 100 ng/well, antibody 1111.11 ng/ml
# OD 450 nm per record follows
Write down the numeric answer in OD and omit the unit.

Some solved entries appear below for comparison.
{"binder": "recombinant humanized anti-CD66c antibody Protein ID 3058 (Vk8 + VH11) (antibody, human IgG1, V domains shown, also called hu 3058; #86) VH: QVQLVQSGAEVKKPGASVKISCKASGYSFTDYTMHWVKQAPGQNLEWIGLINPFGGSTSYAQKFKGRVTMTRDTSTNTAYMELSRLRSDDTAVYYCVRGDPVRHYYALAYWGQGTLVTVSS VL: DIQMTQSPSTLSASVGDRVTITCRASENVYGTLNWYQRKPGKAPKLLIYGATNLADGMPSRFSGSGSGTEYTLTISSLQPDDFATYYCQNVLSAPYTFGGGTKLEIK", "OD 450 nm [OD]": 0.19}
{"binder": "recombinant humanized anti-CD66c antibody Protein ID 3043 (Vk8 + VH6) (antibody, human IgG1, V domains shown, also called hu 3043; #71) VH: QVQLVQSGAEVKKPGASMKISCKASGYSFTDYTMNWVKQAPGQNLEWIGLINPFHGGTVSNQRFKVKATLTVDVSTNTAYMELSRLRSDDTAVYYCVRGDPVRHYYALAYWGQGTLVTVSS VL: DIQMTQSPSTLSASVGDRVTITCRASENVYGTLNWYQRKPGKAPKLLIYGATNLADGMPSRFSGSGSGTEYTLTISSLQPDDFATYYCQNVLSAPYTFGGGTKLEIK", "OD 450 nm [OD]": 1.17}

Problem: Sample recombinant humanized anti-CD66c antibody Protein ID 2938 (Vk5 + VH7) (antibody, human IgG1, V domains shown, also called hu 2938) VH: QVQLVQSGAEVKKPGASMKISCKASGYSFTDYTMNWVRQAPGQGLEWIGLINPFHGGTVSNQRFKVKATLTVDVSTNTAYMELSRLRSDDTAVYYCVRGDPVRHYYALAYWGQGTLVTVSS VL: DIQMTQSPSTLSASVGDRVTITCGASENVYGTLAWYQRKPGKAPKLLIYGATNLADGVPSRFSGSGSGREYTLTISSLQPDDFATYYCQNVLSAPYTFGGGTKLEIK — what was its OD 450 nm?
Solution: 0.21

Problem: Proceed to recombinant humanized anti-CD66c antibody Protein ID 3007 (Vk7 + VH6) (antibody, human IgG1, V domains shown, also called hu 3007; #43) VH: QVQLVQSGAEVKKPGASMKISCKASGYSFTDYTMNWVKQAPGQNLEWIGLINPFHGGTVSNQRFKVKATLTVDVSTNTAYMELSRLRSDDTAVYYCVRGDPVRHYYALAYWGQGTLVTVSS VL: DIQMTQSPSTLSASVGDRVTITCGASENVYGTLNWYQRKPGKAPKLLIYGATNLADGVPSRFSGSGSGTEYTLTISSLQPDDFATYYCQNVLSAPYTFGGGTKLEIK
Solution: 1.06

Problem: Quick one: anti-CD66c chimeric antibody 8F5 (antibody, human IgG1, V domains shown, also called chimeric 8F5 antibody; chi 8F5) VH: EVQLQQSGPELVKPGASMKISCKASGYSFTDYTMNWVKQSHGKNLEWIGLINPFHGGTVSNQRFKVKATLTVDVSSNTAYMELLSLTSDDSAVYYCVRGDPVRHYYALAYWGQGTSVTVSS VL: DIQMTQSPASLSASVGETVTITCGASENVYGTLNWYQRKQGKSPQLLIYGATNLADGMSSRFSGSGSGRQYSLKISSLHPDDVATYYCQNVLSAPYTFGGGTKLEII
Solution: 1.21
